Target: T1, Mdm4 (amino acids 1–108) (UniProt O15151 1-108)
T1 construct: Mdm4 (also known as MdmX), amino acids 1-108; also called Mdm4-WT; MdmX; source: E. coli BL21(DE3), purified (HisTrap FF)
T1 sequence (looked up): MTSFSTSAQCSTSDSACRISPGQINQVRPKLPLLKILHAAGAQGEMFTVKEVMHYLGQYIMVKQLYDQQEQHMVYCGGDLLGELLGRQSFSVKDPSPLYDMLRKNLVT
Test: fluorescence polarisation; competitive fluorescence anisotropy, apparent Kd; peptides titrated at constant Mdm2/Mdm2-M62A/Mdm4 (150 nM) or Mdm4-L98V (250 nM) and FAM-labelled 12-1 peptide (50 nM); PBS pH 7.4, 4% DMSO, 0.1% Tween-20
Settings: both partners purified
pKd: −log10 of the molar value. Square brackets hold non-standard residues; d marks the D form. Trp(6-Cl) = N[C@@H](Cc1c[nH]c2cc(Cl)ccc12)C(=O)O; Trp(6-Me) = Cc1ccc2c(C[C@H](N)C(=O)O)c[nH]c2c1; S8 = C=CCCCCCC[C@](C)(N)C(=O)O; S5 = C=CCCC[C@](C)(N)C(=O)O
Recorded pKd for the following binders
measured_attribute: pKd

- TSFXEYWALLL (not fully specified; N-terminus acetylated; C-terminus amidated; (S)-2-(4′pentenyl) alanine at position 4 and (S)-2-(7′-octenyl) alanine at position 11, fused via olefin metathesis (i, i+7 hydrocarbon linkage)) [PM2 stapled peptide]: 7.00
- TSFXEYWALLL (not fully specified; N-terminus acetylated; C-terminus amidated; L-6-chlorotryptophan at W23 (p53 numbering); (S)-2-(4′pentenyl) alanine at position 4 and (S)-2-(7′-octenyl) alanine at position 11, fused via olefin metathesis (i, i+7 hydrocarbon linkage)) [M011 stapled peptide]: 6.48
- Ac-TSF[S5]EY[Trp(6-Me)]ALL[S8]-NH2 (bridges not given here; also: Trp(6-Me) not enantiomerically pure) [M012-L, linear precursor of M012]: 6.39
- Ac-TSF[S5]EY[Trp(6-Cl)]ALL[S8]-NH2 (bridges not given here) [M011-L, linear precursor of M011]: 5.86
